Target: T1, recombinant human HER2 extracellular domain protein (human, UniProt P04626 23-652)
T1 construct: range 23-652; Range is printed for the immunogen/panning protein; also called ErbB2; recombinant HER2 protein
Experiment: BLI, Protein A capture
Here, each record is paired with measured Kd data.

# Binder, Kd
measured = [
    ("2126-Hu-H26 (antibody, IgG1, name in Kabat numbering, V domains shown, IgG1/Cκ) VH: QVQLVQSGSELKKPGASVKVSCKASGYTFTDYSMHWVRQAPGQGLEWMGWINTDTGEPTYADDFKGRFVFSLDTSVSTAYLQISSLKAEDTAVYFCVRVGRYDYAMDYWGQGTTVTVSS VL: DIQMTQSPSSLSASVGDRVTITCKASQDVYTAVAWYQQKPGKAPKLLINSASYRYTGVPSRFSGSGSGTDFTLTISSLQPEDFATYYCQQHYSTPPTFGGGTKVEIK", "11.1 nM"),
    ("2126-Hu-H46 (antibody, IgG1, V domains shown, IgG1/Cκ) VH: QVQLVQSGSELKKPGASVKVSCKASGYTFTDYSMHWVRQAPGQGLEWMGWINTETGEPTYADDFKGRFVFSLDTSVSTAYLQISSLKAEDTAVYYCVRVGRYDYAMDYWGQGTTVTVSS VL: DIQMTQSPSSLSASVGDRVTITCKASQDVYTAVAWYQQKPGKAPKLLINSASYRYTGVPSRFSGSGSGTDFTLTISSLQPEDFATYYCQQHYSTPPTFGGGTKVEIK", "5.7 nM"),
    ("Hu2126-H2K1 (antibody, human IgG1, V domains shown) VH: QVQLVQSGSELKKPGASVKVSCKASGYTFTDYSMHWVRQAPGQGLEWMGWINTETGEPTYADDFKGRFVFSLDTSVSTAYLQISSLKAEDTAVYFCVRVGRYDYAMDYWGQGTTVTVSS VL: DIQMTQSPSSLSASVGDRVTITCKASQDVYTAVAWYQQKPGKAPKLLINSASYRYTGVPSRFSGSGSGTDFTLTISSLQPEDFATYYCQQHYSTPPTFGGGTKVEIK", "4.71 nM"),
    ("2126-Hu-L03 (antibody, IgG1, V domains shown, IgG1/Cκ) VH: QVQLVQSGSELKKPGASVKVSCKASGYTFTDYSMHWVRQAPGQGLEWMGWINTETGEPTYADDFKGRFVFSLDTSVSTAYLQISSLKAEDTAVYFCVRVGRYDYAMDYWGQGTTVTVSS VL: DIQMTQSPSSLSASVGDRVTITCKASQDVSTAVAWYQQKPGKAPKLLINSASYRYTGVPSRFSGSGSGTDFTLTISSLQPEDFATYYCQQHYSTPPTFGGGTKVEIK", "39.5 nM"),
]
